Across several studies, compounds have been characterized by their IC50 on dN-SARM1 protein (Homo sapiens); a selection follows.

Would you please look over these solved cases?
Mol: Cc1cccc(Cl)c1-n1sc(=O)n(CC2CC2)c1=O
Test readout: IC50
Obs value: < 1000 nM

Mol: N#CCn1ccc(Cc2ccncc2)n1
Test readout: IC50
Obs value: 1000 to 10000 nM

Mol: O=C1N(Cc2ccc(Cl)cc2)CCCN1c1cnn(-c2ccncc2)c1
Test readout: IC50
Obs value: 1000 to 10000 nM

Mol: N[C@H](Cc1ccc(Cl)cc1)C(=O)Nc1cc(-c2ccncc2)n[nH]1
Test readout: IC50
Obs value: < 1000 nM

Please look at the following compound next.
Return IC50 (reported value) for this compound: Cc1cnccc1Cn1ccc(CC(F)(F)F)n1
1000 to 10000 nM

###

Recorded IC50 for compounds tested on dN-SARM1 protein (Homo sapiens, UniProt Q6SZW1), drawn from a number of studies.

Below, each entry is followed by its recorded IC50 result.
Compound: Cc1c(-c2ccncc2)n[nH]c1NC(=O)CCc1ccccc1Cl
Target under test: dN-SARM1 protein (Homo sapiens, UniProt Q6SZW1)
IC50: 1000 to 10000 nM
//
Compound: O=C(CCc1cccc(Cl)c1)Nc1cc(-c2ccncc2)n[nH]1
Target under test: dN-SARM1 protein (Homo sapiens, UniProt Q6SZW1)
IC50: 1000 to 10000 nM
//
Compound: O=C(CCc1cc(F)c(F)c(F)c1)Nc1[nH]nc(-c2ccncc2)c1Cl
Target under test: dN-SARM1 protein (Homo sapiens, UniProt Q6SZW1)
IC50: < 1000 nM

Provide only the value of recorded IC50 for O=S(=O)(Nc1ccn(Cc2ccncc2)n1)c1cccc(F)c1
1000 to 10000 nM

Item Cc1c(-c2ccncc2)n[nH]c1NC(=O)COc1ccc(Cl)cc1 : provide IC50
< 1000 nM

Hello, please tell me recorded IC50 for this one: Cc1c(-c2ccncc2)n[nH]c1NC(=O)N(C)Cc1ccc(Cl)cc1
1000 to 10000 nM

Look up IC50 of FC(F)(F)C(CNc1ccn(Cc2ccncc2)n1)C(F)(F)F and report it.
1000 to 10000 nM

// fetch IC50 given entry Cc1c(-c2ccncc2)n[nH]c1NC(=O)CNc1ccc(Cl)cc1
< 1000 nM

Supply IC50 value. Item: O=C(CCc1ccc(Cl)cc1)Nc1nnc(-c2ccncc2)[nH]1
< 1000 nM

Tell us which IC50 value is on record for CCN(CC)C(=S)SSC(=S)N(CC)CC
< 1000 nM

Please give measured IC50 of the following entry: Cc1c(-c2ccncc2)n[nH]c1NC(=O)CCc1ccc(C(F)F)cc1
< 1000 nM

Report measured IC50; entry is C#Cc1ccc(CCC(=O)Nc2[nH]nc(-c3ccncc3)c2C)cc1
< 1000 nM

Please give measured IC50 of the following entry: FC(F)Cc1ccn(Cc2ccncc2)n1
1000 to 10000 nM

State its IC50 for this compound: Cc1c(NC(=O)NCc2ccc(Cl)cc2)cnn1-c1ccncc1
< 1000 nM

Specify IC50 for O=C(NCc1ccc(Cl)cc1)Nc1cc(-c2ccncc2)n[nH]1 and stop.
< 1000 nM

State its IC50: CC(c1ccncc1)n1ccc(Nc2nccs2)n1 (racemic)
< 1000 nM

Give me measured IC50, please, for this compound: O=c1sn(-c2cccc3ccccc23)c(=O)n1Cc1ccccc1
< 1000 nM

Specify IC50 for O=C(CCc1cc(F)c(F)c(F)c1)Nc1cc(-c2ccncc2)n[nH]1 and stop.
< 1000 nM

Specify measured IC50 for N#Cc1ccc(CCC(=O)Nc2cc(-c3ccncc3)n[nH]2)cc1F .
< 1000 nM

Please give the documented IC50 of O=C(Nc1ccn(Cc2ccncc2)n1)c1cccc(Cl)c1
10000 to 100000 nM
